Test system: ent-kaurene synthase B (KSB)
protocol: Properties of KSB with the phenyl-purified enzyme preparation (pH, Km, cations)
Type: biochemical, Cucurbita maxima L.
condition context: 0.1-50 mM as chlorides, instead of 5 mM Mg2+; FIG. 4
readout: effect of divalent cation on KSB activity

molecule: [Cl][Mn][Cl] [Mn^2+]
result: promoted KSB activity

molecule: [Cl-].[Cl-].[Co+2] [Co^2+]
result: promoted KSB activity

molecule: [Cl-].[Cl-].[Mg+2] [Mg^2+]
result: promoted KSB activity

molecule: [Ba+2].[Cl-].[Cl-] [Ba^2+]
result: showed no effects

molecule: [Ca+2].[Cl-].[Cl-] [Ca^2+]
result: showed no effects

molecule: [Cl][Cu][Cl] [Cu^2+]
result: showed no effects
